test system: Plasmodium berghei; assay: Antimalarial activity against Plasmodium berghei infected mouse assessed as suppression of parasitemia administered through diet for 6 days; assay type: functional
Overview of reported log(1/SD90) across a group of molecules:

As a guide, the following entries are already answered.
Nc1nc(N)c2cc(NCc3ccc(Cl)s3)ccc2n1 | 4.49
Cc1c(NCc2ccccc2)ccc2nc(N)nc(N)c12 | 5.33
CN(Cc1ccc(Cl)c(Cl)c1)c1ccc2nc(N)nc(N)c2c1 | 6.34
CCN(Cc1cccc2ccccc12)c1ccc2nc(N)nc(N)c2c1 | 5.97
Nc1nc(N)c2cc(NCc3cccc(Br)c3)ccc2n1 | 5.93
CC(c1ccc(Cl)c(Cl)c1)N(C)c1ccc2nc(N)nc(N)c2c1 (configuration not stated) | 5.6
CN(C)c1nc(N)c2cc(NCc3ccccc3)ccc2n1 | 3.75
CCCN(Cc1ccc(Cl)c(Cl)c1)c1ccc2nc(N)nc(N)c2c1C | 5.36

Here is another molecule to look at.
Item CN(Cc1ccccc1)c1ccc2nc(N)nc(N)c2c1 : provide log(1/SD90) 6.15

###

Sequence of the target: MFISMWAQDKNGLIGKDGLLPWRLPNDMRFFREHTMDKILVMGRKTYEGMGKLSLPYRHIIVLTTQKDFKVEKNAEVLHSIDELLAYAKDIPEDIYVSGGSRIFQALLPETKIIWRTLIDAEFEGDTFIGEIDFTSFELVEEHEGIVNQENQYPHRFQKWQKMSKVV
Overview of reported log(1/I50) across a group of compounds:
Reply with just the number.

Nc1ncnc2ccc(Sc3ccc4ccccc4c3)cc12 | 4.07

Item Nc1nc(O)c2c(S(=O)(=O)c3ccc4ccccc4c3)cccc2n1 : provide log(1/I50) 5.85

Item Nc1nc(N)c2cc(Sc3cccc(C(F)(F)F)c3)ccc2n1 : provide log(1/I50) 9.15

Item Nc1nc(N)c2c(CSc3ccc4ccccc4c3)cccc2n1 : provide log(1/I50) 7.55

Item CCOC(=O)c1ccc(CNc2ccc3nc(N)nc(N)c3c2C)cc1 : provide log(1/I50) 8.85

Item O=c1[nH]c(=S)c2cc(Sc3ccc4ccccc4c3)ccc2[nH]1 : provide log(1/I50) 4.24

Item Nc1nc(N)c2cc([S+]([O-])c3ccc4ccccc4c3)ccc2n1 (centres undefined) : provide log(1/I50) 8.7

Item Nc1nc(N)c2cc(CN(C=O)c3ccc(C(=O)NC(CCC(=O)O)C(=O)O)cc3)ccc2n1 (centres undefined) : provide log(1/I50) 9

Item Nc1nc(N)c2c([S+]([O-])c3ccc(Cl)c(Cl)c3)cccc2n1 (centres undefined) : provide log(1/I50) 4.65

###

target: Dihydrofolate reductase (Enterococcus faecium) (UniProt P00380)
Values of log(1/I50) strictly less than 7 map to true (1), and values of at least 7 map to false (0).

Consider the following illustrative entries.
CCCCOC(=O)c1ccc(NCc2ccc3nc(N)nc(N)c3c2C)cc1 | false (0)
CCOC(=O)c1ccc(CNc2ccc3nc(N)nc(O)c3c2C)cc1 | true (1)

Determine whether this molecule shows log(1/I50) lower than 7 (ties excluded): Nc1ncnc2ccc(S(=O)(=O)c3ccc4ccccc4c3)cc12 true (1)

Determine whether this molecule shows log(1/I50) lower than 7 (ties excluded): Nc1nc(N)c2c(S(=O)(=O)c3ccc4ccccc4c3)cccc2n1 true (1)

Determine whether this molecule shows log(1/I50) lower than 7 (ties excluded): Nc1nc(N)c2cc(S(=O)(=O)c3ccc(Cl)c(Cl)c3)ccc2n1 false (0)

Determine whether this molecule shows log(1/I50) lower than 7 (ties excluded): Nc1nc(N)c2c(CCc3ccc4ccccc4c3)cccc2n1 false (0)

Determine whether this molecule shows log(1/I50) lower than 7 (ties excluded): Nc1nc(N)c2c(/C=C\c3ccc4ccccc4c3)cccc2n1 false (0)

Determine whether this molecule shows log(1/I50) lower than 7 (ties excluded): Nc1nc(S)nc2ccc(Sc3ccc4ccccc4c3)cc12 true (1)

Determine whether this molecule shows log(1/I50) lower than 7 (ties excluded): Nc1nc(N)c2cc(S(=O)(=O)c3ccc4ccccc4c3)ccc2n1 false (0)

Determine whether this molecule shows log(1/I50) lower than 7 (ties excluded): O=c1[nH]c(=O)c2cc(Sc3ccc4ccccc4c3)ccc2[nH]1 true (1)

Determine whether this molecule shows log(1/I50) lower than 7 (ties excluded): Nc1nc(O)c2cc([S+]([O-])c3ccc4ccccc4c3)ccc2n1 (stereo unspecified) true (1)

Determine whether this molecule shows log(1/I50) lower than 7 (ties excluded): Nc1nc(O)c2cc(CN(C=O)c3ccc(C(=O)NC(CCC(=O)O)C(=O)O)cc3)ccc2n1 (stereo unspecified) true (1)

Determine whether this molecule shows log(1/I50) lower than 7 (ties excluded): CCOC(=O)c1ccc(NCc2ccc3nc(N)nc(N)c3c2C)cc1 false (0)

Determine whether this molecule shows log(1/I50) lower than 7 (ties excluded): CCCCOC(=O)c1ccc(NCc2ccc3nc(N)nc(N)c3c2)cc1 false (0)

Determine whether this molecule shows log(1/I50) lower than 7 (ties excluded): Nc1nc(N)c2c([S+]([O-])c3ccc4ccccc4c3)cccc2n1 (stereo unspecified) true (1)

Determine whether this molecule shows log(1/I50) lower than 7 (ties excluded): Nc1nc(N)c2c(CSc3ccc(Cl)cc3)cccc2n1 false (0)

Determine whether this molecule shows log(1/I50) lower than 7 (ties excluded): Nc1nc(N)c2c(Sc3ccc4ccccc4c3)cccc2n1 false (0)
